# procedure.summary: Single-dose two-period crossover bioequivalence study, fed (high-fat breakfast): plasma pharmacokinetics of lisinopril and amlodipine (LC-MS/MS, NCA)
# applied.conditions: human, plasma, po, Plasma concentration of lisinopril, Mean, mean of 37 subjects, nominal time 13 h, reference (R) tablets
measured.endpoint: concentration at 13 h (ng/mL)

- compound.structure.string: "NCCCC[C@H](N[C@@H](CCc1ccccc1)C(=O)O)C(=O)N1CCC[C@H]1C(=O)O"
  measured.endpoint: "concentration at 13 h"
  unit.symbol: "ng/mL"
  measured.value: 9.81

----------
# procedure.summary: Single-dose two-period crossover bioequivalence study, fasting: plasma pharmacokinetics of lisinopril and amlodipine (LC-MS/MS, NCA);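 note: single tablet dose 10 mg/5 mg fixed combination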
# applied.conditions: human, plasma, po, Plasma concentration of amlodipine, Min, reference (R) tablets, nominal time 168 h, minimum over subjects
measured.endpoint: concentration at 168 h (ng/mL)

- molecule: "CCOC(=O)C1=C(COCCN)NC(C)=C(C(=O)OC)C1c1ccccc1Cl (stereo not shown)"
  measured.endpoint: "concentration at 168 h"
  measured.value: 0

----------
# procedure.summary: Single-dose two-period crossover bioequivalence study, fasting: plasma pharmacokinetics of lisinopril and amlodipine (LC-MS/MS, NCA);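 note: single tablet dose 10 mg/5 mg fixed combination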
# applied.conditions: human, plasma, po, Plasma concentration of amlodipine, Mean, reference (R) tablets, nominal time 5 h, mean of subjects
measured.endpoint: concentration at 5 h (ng/mL)

- compound: "CCOC(=O)C1=C(COCCN)NC(C)=C(C(=O)OC)C1c1ccccc1Cl (stereo not shown)"
  measured.endpoint: "concentration at 5 h"
  measured.value: 2.03

----------
# procedure.summary: Single-dose two-period crossover bioequivalence study, fasting: plasma pharmacokinetics of lisinopril and amlodipine (LC-MS/MS, NCA);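 note: single tablet dose 10 mg/5 mg fixed combination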
# applied.conditions: human, plasma, po, Plasma concentration of amlodipine, Mean, reference (R) tablets, nominal time 6 h, mean of subjects

- compound: "CCOC(=O)C1=C(COCCN)NC(C)=C(C(=O)OC)C1c1ccccc1Cl (stereo not shown)"
  concentration at 6 h (ng/mL): 2.16

----------
# procedure.summary: Single-dose two-period crossover bioequivalence study, fed (high-fat breakfast): plasma pharmacokinetics of lisinopril and amlodipine (LC-MS/MS, NCA)
# applied.conditions: human, plasma, po, Plasma concentration of lisinopril, Mean, mean of 37 subjects, nominal time 0 h, reference (R) tablets
measured.endpoint: concentration at 0 h (ng/mL)

- compound.structure.string: "NCCCC[C@H](N[C@@H](CCc1ccccc1)C(=O)O)C(=O)N1CCC[C@H]1C(=O)O"
  measured.endpoint: "concentration at 0 h"
  unit.symbol: "ng/mL"
  measured.value: 0.0284

----------
# procedure.summary: Single-dose two-period crossover bioequivalence study, fasting: plasma pharmacokinetics of lisinopril and amlodipine (LC-MS/MS, NCA);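 note: single tablet dose 10 mg/5 mg fixed combination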
# applied.conditions: human, plasma, po, Plasma concentration of amlodipine, Max, reference (R) tablets, nominal time 5 h, maximum over subjects
measured.endpoint: concentration at 5 h

- compound: "CCOC(=O)C1=C(COCCN)NC(C)=C(C(=O)OC)C1c1ccccc1Cl (stereo not shown)"
  measured.endpoint: "concentration at 5 h"
  measured.value: "2.98 ng/mL"

----------
# procedure.summary: Single-dose two-period crossover bioequivalence study, fasting: plasma pharmacokinetics of lisinopril and amlodipine (LC-MS/MS, NCA);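 note: single tablet dose 10 mg/5 mg fixed combination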
# applied.conditions: human, plasma, po, Plasma concentration of amlodipine, Max, reference (R) tablets, nominal time 96 h, maximum over subjects
measured.endpoint: concentration at 96 h (ng/mL)

- compound: "CCOC(=O)C1=C(COCCN)NC(C)=C(C(=O)OC)C1c1ccccc1Cl (stereo not shown)"
  measured.endpoint: "concentration at 96 h"
  measured.value: 1.11

Values from paper PMC9260974
